Recorded values, source patent US5134073A.

% Residual activity values, listed per item
Tested on: N-acetyldehydroleucine acylase
Assay: Influence of additive substances on the splitting of N-acetyldehydroleucine under standard conditions
Format: biochemical, Zoogloea ramigera
Conditions: inhibitor 1 mM
Procedure: The mixing together of the batches, their storage and the taking of specimens took place under sterile conditions. The standard conditions for the enzyme test were: 20 mM N-Acetyldehydroleucine

compound: [Cl][Hg][Cl] [HgCl2]
% Residual activity (%): 84
--
compound: c1cnc2c(c1)ccc1cccnc12 [Phenanthroline]
% Residual activity (%): 94
--
compound: [Cl-].[Cl-].[Zn+2] [ZnCl2]
% Residual activity (%): 95
--
compound: O=C(O)c1cc[c]([Hg][OH])cc1 [pCMB, parahydroxy mercury benzoate]
% Residual activity (%): 104
--
compound: O=C(O)CC(O)(CC(=O)O)C(=O)O [Citrate]
% Residual activity (%): 99
--
compound: OCCS [MeSH, mercaptoethanol]
% Residual activity (%): 93

====

system: N-acetyldehydroleucine acylase; test: Acylase activity versus concentration of N-acetyldehydroamino acids (kinetic data); type: biochemical, Zoogloea ramigera; conditions: glycine, 0.1 M, pH 9, 30° C.
Km values, listed per item

compound: C=C(NC(C)=O)C(=O)O
assay target: N-acetyldehydroleucine acylase
Km [mM]: 6.68
//
compound: CC(=O)NC(=Cc1ccccc1)C(=O)O
assay target: N-acetyldehydroleucine acylase
Km [mM]: 2.62
//
compound: CC(=O)NC(C(=O)O)=C(C)C [ADV, N-acetyl-2,3-didehydrovaline]
assay target: N-acetyldehydroleucine acylase
Km [mM]: 20.9
//
compound: CCC(C)=C(NC(C)=O)C(=O)O [ADI, N-acetyl-2,3-didehydroisoleucine]
assay target: N-acetyldehydroleucine acylase
Km [mM]: 5.77

====

tested on: N-acetyldehydroleucine acylase; experiment: Hydrolysis of other compounds by the acylase (TLC / amino acid analyzer); assay type: biochemical, Zoogloea ramigera
observable: Substrate specificity: hydrolysis by the acylase

compound: CSCC[C@H](N)C(N)=O [L-methionine amide]
assay target: N-acetyldehydroleucine acylase
test result: hydrolyzes
--
compound: CC(=O)N[C@H](C(=O)O)C(C)C
assay target: N-acetyldehydroleucine acylase
test result: not
--
compound: CC(C)C[C@H](N)C(N)=O [L-leucine amide]
assay target: N-acetyldehydroleucine acylase
test result: hydrolyzes
--
compound: NC(=O)[C@@H](N)Cc1c[nH]c2ccccc12 [L-tryptophane amide]
assay target: N-acetyldehydroleucine acylase
test result: hydrolyzes
--
compound: CC(=O)N[C@@H](CC(C)C)C(=O)O
assay target: N-acetyldehydroleucine acylase
test result: not
--
compound: CC(C)C[C@@H](N)C(N)=O [D-leucine amide]
assay target: N-acetyldehydroleucine acylase
test result: hydrolyzes

====

Test system: N-acetyldehydroleucine acylase
Experiment: Influence of additive substances on the splitting of N-acetyldehydroleucine under standard conditions
Type: biochemical, Zoogloea ramigera
Settings: inhibitor 1 mM
Experimental: The mixing together of the batches, their storage and the taking of specimens took place under sterile conditions. The standard conditions for the enzyme test were: 20 mM N-Acetyldehydroleucine
% Residual activity values, listed per item

molecule: N[C@@H]1CON=C1O
% Residual activity: 111%
--
molecule: [Cl-].[Cl-].[Mg+2]
% Residual activity: 95%
--
molecule: [N-]=[N+]=[N-].[Na+]
% Residual activity: 105%
--
molecule: NC(=O)CI [iodine acetamide]
% Residual activity: 104%
--
molecule: [Cl][Mn][Cl]
% Residual activity: 99%
--
molecule: NNC(N)=O [Semicarbazide]
% Residual activity: 113%
--
molecule: O[C@H](CS)[C@H](O)CS (racemic)
% Residual activity: 103%
--
molecule: O=S(=O)([O-])[O-].[Cu+2]
% Residual activity: 87%
--
molecule: [Cl-].[Cl-].[Co+2]
% Residual activity: 91%
--
molecule: CN(C)C(=O)Oc1cccc([N+](C)(C)C)c1
% Residual activity: 102%
--
molecule: O=C(O)c1cc[c]([Hg][OH])cc1 [pOHMB, parahydroxy mercuric benzoate]
% Residual activity: 93%
--
molecule: c1ccc(-c2ccccn2)nc1
% Residual activity: 91%

====

system: N-acetyldehydroleucine acylase; experiment: Influence of additive substances on the splitting of N-acetyldehydroleucine under standard conditions; format: biochemical, Zoogloea ramigera; details: inhibitor 10 mM
Definition: the class of an entry is the range in interval 1: < 80%; interval 2: ≥ 80% and < 90%; interval 3: ≥ 90% that contains its % Residual activity.

compound: O=C(O)CC(O)(CC(=O)O)C(=O)O [Citrate]
assigned class: interval 2
--
compound: NNC(N)=O [Semicarbazide]
assigned class: interval 3
--
compound: [Cl][Hg][Cl]
assigned class: interval 1
--
compound: OCCS
assigned class: interval 3
--
compound: [Cl][Mn][Cl]
assigned class: interval 2
--
compound: N[C@@H]1CON=C1O
assigned class: interval 3
--
compound: O=C(O)c1cc[c]([Hg][OH])cc1 [pCMB, parahydroxy mercury benzoate]
assigned class: interval 3
--
compound: O=S(=O)([O-])[O-].[Cu+2]
assigned class: interval 2
--
compound: [Ca+2].[Cl-].[Cl-]
assigned class: interval 3
--
compound: NC(=O)CI [iodine acetamide]
assigned class: interval 1

====

% Vmax values, listed per item
system: N-acetyldehydroleucine acylase; assay: Acylase activity versus concentration of N-acetyldehydroamino acids (kinetic data); assay type: biochemical, Zoogloea ramigera; conditions: glycine, 0.1 M, pH 9, 30° C.

compound: CC(=O)NC(=CC(C)C)C(=O)O [ADL, N-acetyl-2,3-didehydroleucine]
unit abbrev: %
% Vmax: 100
//
compound: CC(=O)NC(=Cc1ccccc1)C(=O)O
unit abbrev: %
% Vmax: 46
//
compound: CCC(C)=C(NC(C)=O)C(=O)O [ADI, N-acetyl-2,3-didehydroisoleucine]
unit abbrev: %
% Vmax: 14
//
compound: CC(=O)NC(C(=O)O)=C(C)C [ADV, N-acetyl-2,3-didehydrovaline]
unit abbrev: %
% Vmax: 23
//
compound: C=C(NC(C)=O)C(=O)O
unit abbrev: %
% Vmax: 90

====

% Residual activity after 3 days values, listed per item
tested on: ADL acylase; assay: Stability of the acylase in the presence of different anions; type: physicochemical, Zoogloea ramigera; conditions: sodium salt 0.5 M in 50 mM glycine pH 11, 20° to 25° C., raw extract; 500000 µM
observable: % Residual activity after 3 days (%)

compound: O=S(=O)(O)O [Sulfate]
observable: % Residual activity after 3 days
unit abbrev: %
test result: 89

compound: Cl [Chloride]
observable: % Residual activity after 3 days
unit abbrev: %
test result: 35

compound: O=CO [Formate]
observable: % Residual activity after 3 days
unit abbrev: %
test result: 76

compound: CC(=O)O [Acetate]
observable: % Residual activity after 3 days
unit abbrev: %
test result: 86

====

System: ADL acylase
Assay: Stability of the acylase in the presence of different anions
Format: physicochemical, Zoogloea ramigera
Conditions: sodium salt 0.5 M in 50 mM glycine pH 11, 20° to 25° C., raw extract; 500000 µM
Protocol: The influence of different anions on the stability of ADL acylase was investigated. Raw extract which had been compounded with glycerin to 43.5% (w/v) was diluted 1 : 10 with 0.5 molar solutions of various sodium salts in 50 mM glycine (pH 11) and stored at room temperature (20° to 25° C.). Specimens were taken from time-to-time and their enzymatic activity measured under standard conditions, as described in Example 8a).
observable: % Residual activity after 6 days (%)

compound: O=CO [Formate]
observable: % Residual activity after 6 days
test result: 63

compound: Cl [Chloride]
observable: % Residual activity after 6 days
test result: 0

compound: O=S(=O)(O)O [Sulfate]
observable: % Residual activity after 6 days
test result: 94

compound: CC(=O)O [Acetate]
observable: % Residual activity after 6 days
test result: 81

====

Tested on: N-acetyldehydroleucine acylase
Assay: Influence of additive substances on the splitting of N-acetyldehydroleucine under standard conditions
Assay type: biochemical, Zoogloea ramigera
Details: inhibitor 10 mM
Description: The mixing together of the batches, their storage and the taking of specimens took place under sterile conditions. The standard conditions for the enzyme test were: 20 mM N-Acetyldehydroleucine
% Residual activity values, listed per item
observable: % Residual activity

molecule: [Cl-].[Cl-].[Co+2]
test result: 85%
--
molecule: N=C(N)c1ccc(N)cc1
test result: 89%
--
molecule: O=C(O)c1cc[c]([Hg][OH])cc1 [pOHMB, parahydroxy mercuric benzoate]
test result: 91%
--
molecule: c1ccc(-c2ccccn2)nc1
test result: 70%
--
molecule: c1cnc2c(c1)ccc1cccnc12
test result: 52%
--
molecule: O[C@H](CS)[C@H](O)CS (racemic)
test result: 58%
--
molecule: [N-]=[N+]=[N-].[Na+]
test result: 103%

====

system: ADL acylase; experiment: Stability of the acylase in the presence of different anions; type: physicochemical, Zoogloea ramigera; conditions: sodium salt 0.5 M in 50 mM glycine pH 11, 20° to 25° C., raw extract; 500000 µM
% Residual activity after 21 days values, listed per item
observable: % Residual activity after 21 days (%)

molecule: Cl [Chloride]
unit abbrev: %
test result: 0
//
molecule: CC(=O)O [Acetate]
unit abbrev: %
test result: 6
//
molecule: O=S(=O)(O)O [Sulfate]
unit abbrev: %
test result: 15
//
molecule: O=CO [Formate]
unit abbrev: %
test result: 2
